Data origin: ChEMBL document CHEMBL3046825

biological target: Acetylcholine receptor subunit alpha (Torpedo californica); assay: Increase in [3H]PCP binding to nAChR in Torpedo nobiliana electric organs; details: Electric organ
Calls of active or inactive are those of the source. The rule behind the calls is not given here.
Test Readout: Activity

Example entries begin here.
• O=[N+]([O-])/N=C1\NCCN1Cc1ccc(Cl)nc1 = 300%
• CN1CCC[C@H]1c1cccnc1 = Active
• C[N+](C)(C)C [TRETRAMETHYLAMMONIUM IODIDE] = Active
• CN(C)Cc1ccncc1 = Active
• CN(C)Cc1ccccn1 = Active

// next item, Activity requested
Exercise: # input compound: CN(C)Cc1cccnc1 ; wanted: its Activity
Key: Active

###

// log10 IC50 lookup, one value per entry
test: Displacement of [3H]alpha-BGT from nAChR in Apis mellifera (honeybee) head
Scale: decimal log of IC50, IC50 in µM.

• C[N+](C)(C)CCOC(N)=O = 1.96
• CCN(Cc1ccc(Cl)nc1)/C(=C/[N+](=O)[O-])NC = 1.79
• O=[N+]([O-])/N=C1\NCCN1Cc1ccc(Cl)nc1 = 0.29
• C[N+](C)(C)C [TRETRAMETHYLAMMONIUM IODIDE] = 2.73

// next item, log10 IC50 requested
Exercise: What does the data say about its log10 IC50? Entry: O=[N+]([O-])C=C1NCCCS1
Key: 3.13

###

test: Displacement of [3H]nicotine from nAChR in Sprague-Dawley Rattus norvegicus (rat) whole brain homogenates; type: tissue-based
Test Readout: pIC50
On this scale, pIC50 is minus log10 of a concentration expressed in M (mol/L).

Here is how some compounds turned out for pIC50.
• CN1CCC[C@H]1c1cccnc1 [NICOTINE] = 8.02
• c1cncc([C@@H]2CCCCN2)c1 [ANABASINE] = 6.55
• C[N+](C)(C)CCOC(N)=O [CARBACHOL] = 6.19

Exercise: Item under review: O=[N+]([O-])/N=C1\NCCN1Cc1ccc(Cl)nc1 [IMIDACLOPRID] . Reported pIC50?
Key: 6.01

Exercise: Which pIC50 value is on record for O=[N+]([O-])C=C1NCCCS1 ?
Key: 3.96

###

Listed next: entries and their corresponding pIC50.
experiment: Displacement of [3H]alpha-BGT from nAChR in Apis mellifera (honeybee) head
Interpret pIC50 as the negative base-10 log of the concentration measured in mol/L.

Example cases with answers are listed next.
- C/C(=N\C#N)N(C)Cc1ccc(Cl)nc1: 5.05
- c1cncc([C@@H]2CCCCN2)c1: 5.70

Moving on to the next molecule.
Exercise: Find the recorded pIC50 belonging to CN1CCC[C@H]1c1cccnc1 and report it.
Key: 5.90
